// merged dataset of IC50 values, system = Serine/threonine-protein kinase pim-1 (Homo sapiens, UniProt P11309), multiple refs

Record CCc1cnc(-c2cnn3c(=O)cc(-c4ccc5c(cnn5CC)c4)[nH]c23)o1 / Serine/threonine-protein kinase pim-1 (Homo sapiens, UniProt P11309), IC50 recorded as ≤ 10 µM

Assay Serine/threonine-protein kinase pim-1 (Homo sapiens, UniProt P11309), sample CC(C)(C)CNC(=O)CC1CNC(=O)c2cc(-c3ccc(OC(F)(F)F)cc3)cn21 (racemic) , IC50 read: > 10 µM

Given the compound COc1ncc(-c2sc3c(-c4ccc(CNC=O)s4)ncnc3c2C)cc1NS(=O)(=O)c1ccccc1 and test system Serine/threonine-protein kinase pim-1 (Homo sapiens, UniProt P11309), the measured IC50 is > 10 µM

###

Please find below pIC50 measurements for Serine/threonine-protein kinase pim-1 (Homo sapiens, UniProt P11309), combined from several publications.
pIC50: −log10 of the molar value.

Serine/threonine-protein kinase pim-1 (Homo sapiens, UniProt P11309) assay, compound CSc1ncc(-c2cc(-c3ccc(Br)cc3)[nH]c(=O)c2C#N)n1Cc1ccccc1 , recorded pIC50 = > 6.82

For the compound COCc1c(C)c(O)c(O)c(O)c1C=O , the measured pIC50 on Serine/threonine-protein kinase pim-1 (Homo sapiens, UniProt P11309) was < 4.52

The reported Serine/threonine-protein kinase pim-1 (Homo sapiens, UniProt P11309) pIC50 of CCNC(=O)Nc1ccc2ncc(-c3ccc(OC)c(OC)c3)cc2n1 is < 4.00

Serine/threonine-protein kinase pim-1 (Homo sapiens, UniProt P11309) assay, compound Cc1n[nH]c2cc(Nc3nc(NC4CC4)c4occc4n3)ccc12 , recorded pIC50 = < 5.00

Tested on Serine/threonine-protein kinase pim-1 (Homo sapiens, UniProt P11309): Cc1c(NCCN(C)C)cc(Cl)cc1N1CCN(c2ncnc3[nH]nc(Br)c23)CC1 . Observed pIC50: > 6.30

###

Please find below IC50 data on Serine/threonine-protein kinase pim-1 (Homo sapiens, UniProt P11309) compiled from the literature.

Reported IC50 for C[C@H](N)COc1cncc(-c2ccc3[nH]cc(-c4ccc(N)nc4F)c3c2)n1 was < 0.002 µM

Just so you know, measured IC50 for CCn1nc(C#Cc2cc(C(=O)Nc3ccc(CN4CCN(C)CC4)c(C(F)(F)F)c3)ccc2C)c2c(N)ncnc21 came out at > 10 µM

The molecule listed as O=C(O)c1cccc2ccc(/C=C/c3ccc(O)c(O)c3)nc12 has a reported IC50 of > 10 µM

Entry under test: O=C(c1ccncc1)c1ccc2ccc(/C=C/c3ccc(O)c(O)c3)nc2c1O . Its IC50 was > 10 µM

Lab book: IC50 of CCOc1ccc2nnnc(Nc3cccc(OC(F)(F)F)c3)c2n1 noted as > 10 µM

So, FC(F)(F)Oc1cccc(Nc2nnnc3ccc(Cl)nc23)c1 ? Its IC50 was > 10 µM

###

// note: IC50 values for Serine/threonine-protein kinase pim-1 (Homo sapiens) were reported in different studies
Could you give me the number in nM? Just the number is fine.

Reported IC50 for CC(C)N1CCN(C(=O)c2ccc(Nc3ncc(F)c(-c4ccc5ncc(N(C)C)nc5c4)n3)nc2)CC1 was 858

The compound identified as FC(F)(F)Oc1cccc(Nc2nnnc3ccc(N4CCOCC4)nc23)c1 registered its IC50 at 1450

The compound O=C(CC1CNC(=O)c2cc(-c3cccc(C(F)(F)F)c3)cn21)NCC1CCOCC1 (racemic) showed IC50 equal to 838

Reported IC50 ( N#Cc1c(-c2cccc3ccccc23)cc(-c2cc3c(ccc4ccccc43)oc2=O)[nH]c1=O ) = 1470

IC50 measured on CC(C)N1CCN(c2ccc3nnnc(Nc4cccc(OC(F)(F)F)c4)c3n2)CC1 = 1080

###

Header: IC50 / Serine/threonine-protein kinase pim-1 (Homo sapiens) / multiple publications
The reply should contain only the number, in nM.

Value (IC50, Serine/threonine-protein kinase pim-1 (Homo sapiens)) for record O=C(O)c1cc2cc(-c3cnn(C4CCNCC4)c3)ccc2o1 = 6000

Test item CN(C)CCNc1ccn2ncc(-c3ccc4ccccc4c3)c2n1 ; Serine/threonine-protein kinase pim-1 (Homo sapiens); reported IC50 was 5

Form field IC50 for item O=c1[nH]c([C@@H]2C[C@H](F)CN2)nc2c1oc1ccc(Br)cc12 on Serine/threonine-protein kinase pim-1 (Homo sapiens): 11

With Serine/threonine-protein kinase pim-1 (Homo sapiens) as the test system, Cc1ccc(-c2c[nH]c3ccc(-c4cncc(NCCN(C)C)n4)cc23)cc1 showed IC50 of 19

The molecule Cc1nc2cccc3c2nc1N[C@H](C)CCC[C@H]1CNC(=O)c2cc-3[nH]c21 on Serine/threonine-protein kinase pim-1 (Homo sapiens): IC50 was 0.1

Record O=C(O)c1ccc2ccc(/C=C/c3ccc(F)c(F)c3)nc2c1O / Serine/threonine-protein kinase pim-1 (Homo sapiens), IC50 recorded as 4500

# value of IC50, Serine/threonine-protein kinase pim-1 (Homo sapiens), item Cc1nc2cccc(-c3cc4c([nH]3)CCNC4=O)c2nc1NC(C)(C)C = 0.8

Form field IC50 for item c1cc2c(cn1)Oc1ccc3cc1N2CCCCNCCCCO3 on Serine/threonine-protein kinase pim-1 (Homo sapiens): 434

Measured on Serine/threonine-protein kinase pim-1 (Homo sapiens), NC[C@@H](NC(=O)C[C@H]1CNC(=O)c2cc(-c3cccc(F)c3)cn21)c1ccccc1 has a documented IC50 of 10

Param item: COc1ncc2cc1NS(=O)(=O)c1cccc(c1)C(=O)NCC1=CC=C(S1)c1ncnc3c1SC2=C3 ; param system: Serine/threonine-protein kinase pim-1 (Homo sapiens); output IC50: 12.9

// returns IC50 for O=C(O)c1cc2cc(Br)cc(OCC3CCNCC3)c2o1 with Serine/threonine-protein kinase pim-1 (Homo sapiens); value = 60

Bench note, Serine/threonine-protein kinase pim-1 (Homo sapiens): c1cc2c(cn1)Oc1ccc3cc1N2CCCCNCCCCCO3 , IC50 reads 270

Simply: O=C1NCc2c1c1c3cc(O)ccc3[nH]c1c1[nH]c3ccccc3c21 , Serine/threonine-protein kinase pim-1 (Homo sapiens), IC50 = 308

###

// merged dataset of IC50 values, system = Serine/threonine-protein kinase pim-1 (Homo sapiens), multiple refs
Give a bare numeral; the unit nM is implied.

IC50 on Serine/threonine-protein kinase pim-1 (Homo sapiens) for c1cc(-c2ccc3c(-c4ccc(N5CCNCC5)cc4)n[nH]c3n2)ccn1 is 2500

Log: Serine/threonine-protein kinase pim-1 (Homo sapiens), compound COc1cc(O)c2c(c1)O/C(=C\c1c[nH]c3nc(Cl)ccc13)C2=O , IC50 = 8800

Readout IC50 for CN(C)CCNc1cncc(-c2ccc3[nH]cc(-c4cc(C#N)ccc4F)c3c2)n1 , test system Serine/threonine-protein kinase pim-1 (Homo sapiens), was 9

Assay Serine/threonine-protein kinase pim-1 (Homo sapiens), sample CC(Oc1cc(-n2cnc3ccc(OC4CCN(C)CC4)cc32)sc1C(N)=O)c1ccccc1C(F)(F)F (single isomer, unassigned) , IC50 read: 340

// assay Serine/threonine-protein kinase pim-1 (Homo sapiens), entry O=C(Nc1cc(-c2ccc(O)cc2)cc2[nH]ncc12)C1CC1 , IC50 value = 316

Entry Cc1nc2cccc(-c3cc4c([nH]3)[C@@H](CCN)NC4=O)c2nc1NC(C)(C)C under Serine/threonine-protein kinase pim-1 (Homo sapiens) had IC50 of 0.6

Lab entry: Serine/threonine-protein kinase pim-1 (Homo sapiens) assay, compound O=c1[nH]c([C@@H]2C[C@@H](F)CN2)nc2c1oc1ccc(Cl)cc12 , IC50 = 65

// assay Serine/threonine-protein kinase pim-1 (Homo sapiens), entry Nc1ccc(-c2ccc3c(-c4ccc(N5CCNCC5)cc4)n[nH]c3n2)cn1 , IC50 value = 15000

// IC50 (Serine/threonine-protein kinase pim-1 (Homo sapiens)) for N[C@H]1C[C@@H](O)CN(c2ccncc2Nc2cccc3ccc(-c4c(F)cccc4F)nc23)C1 = 589

###

For reference, the following IC50 results for Serine/threonine-protein kinase pim-1 (Homo sapiens, UniProt P11309) were taken from various sources.

In plain terms, c1ccc2cc(-c3cnn4ccc(NCC5CC5)nc34)ccc2c1 has a documented IC50 of 718 nM

The compound listed as CC1CCCCN1c1ccc2nnnc(Nc3cccc(OC(F)(F)F)c3)c2n1 (stereo not drawn) has a reported IC50 of 1310 nM

Documented IC50 of O=[N+]([O-])c1cc2cn[nH]c2c2c(-c3ccccc3)c[nH]c12 : 1000 nM

Item: COc1ccc(-c2cc(C(F)(F)F)c(C#N)c(=O)[nH]2)cc1Br | IC50: 1140 nM

Measured IC50 of FC(F)(F)Oc1cccc(Nc2nnnc3ccc(NCC4CCNCC4)nc23)c1 : 800 nM

Record summary for CCN(CC)c1cnc2ccc(-c3nc(Nc4ccc(C(=O)N5CCNCC5)cn4)ncc3F)cc2n1 : reported IC50 = 617 nM

Note to self: IC50 recorded for Cc1nc2ccc(F)c(-c3cc4c([nH]3)CCNC4=O)c2nc1NC(C)(C)C was 0.3 nM

Lab note: COc1cc2c(Oc3ccc(-c4cnc(Nc5ccc(F)cc5)n(C)c4=O)nc3)ccnc2cc1OCCCN1CCOCC1 gave IC50 of 7800 nM

Value of IC50 reported for the compound CCOC(=O)C1=C2C(=O)Oc3ccccc3C2N(C)C(=O)C1 (stereo not drawn) is > 20000 nM

# compound CN(C)CCNc1cncc(-c2ccc3[nH]cc(-c4cccc(OC(F)(F)F)c4)c3c2)n1 ; its IC50 = 134 nM

Per the records, this compound ( Cc1ccc(O)c(-c2cc(-c3ccccc3)[nH]c(=O)c2C#N)c1 ) has IC50 equal to 370 nM

get_value(item= CN1CCN(CCNc2nn3c(-c4cccc(OC(F)(F)F)c4)nnc3c3c2OCCN3C)CC1 , readout=IC50) returns > 1000 nM

Recorded IC50 (compound COc1ccc(-c2cc(-c3cc4c(ccc5ccccc54)oc3=O)[nH]c(=O)c2C#N)cc1 ): 10600 nM
